# Study Target: GalNAc3S(b1-4)GlcNAc
# Measurement Notes: glycan array binding signal (z-score within array); higher = stronger binding
# Test Conditions: glycan notation: IUPAC condensed, linker removed
About 410 targets per protein were measured; listed, in parts, are those with the strongest signals and a random draw of the rest.
Measurement Name: glycan array binding signal (z-score)

## Task Find the recorded glycan array binding signal (z-score) belonging to Epa6 (Candida glabrata), Q6DTM7_CANGB (protein) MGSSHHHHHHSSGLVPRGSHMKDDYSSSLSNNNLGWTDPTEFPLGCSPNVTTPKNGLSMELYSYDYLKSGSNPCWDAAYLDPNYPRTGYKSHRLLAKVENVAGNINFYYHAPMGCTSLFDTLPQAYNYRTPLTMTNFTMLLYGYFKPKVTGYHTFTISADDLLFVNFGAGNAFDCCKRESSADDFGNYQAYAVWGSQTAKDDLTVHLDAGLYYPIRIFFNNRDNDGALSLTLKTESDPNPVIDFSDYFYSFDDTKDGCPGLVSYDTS and report it.
## Result -0.313

Values from the supplement of paper PMC8728848
